- Test system: OVCAR-4 (Ovarian Carcinoma)
- assay-method-text: Bliss excess, mean over the matrix (fraction); higher = more synergy
readout-name: Bliss excess

[[record]]
molecule = "Cc1c2c(nn1C)CSCc1cc(n(C)n1)CSc1cc(c3ccccc3c1)OCCCc1c(C(=O)O)n(C)c3c-2c(Cl)ccc13 [AZD5991] + C1CN(CCC1(C(=O)N[C@@H](CCO)C2=CC=C(C=C2)Cl)N)C3=NC=NC4=C3C=CN4 [Capivasertib] (first compound max 1 µM, 7x7, partner max 3 µM)"
readout_name = "Bliss excess"
observed_measurement = -0.0114

[[record]]
molecule = "COc1cc2c(cc1OCCCCCOc1cc3c(cc1OC)C(=O)N1C=C(C)C[C@H]1C=N3)N=C[C@@H]1CC(C)=CN1C2=O [SG3199] + O=C(c1cc(Cc2n[nH]c(=O)c3ccccc23)ccc1F)N1CCN(C(=O)C2CC2)CC1 [Olaparib] (first compound max 0.001 µM, 7x7, partner max 10 µM)"
readout_name = "Bliss excess"
observed_measurement = -0.0193

[[record]]
molecule = "Cc1c2c(nn1C)CSCc1cc(n(C)n1)CSc1cc(c3ccccc3c1)OCCCc1c(C(=O)O)n(C)c3c-2c(Cl)ccc13 [AZD5991] + Cn1cnc2c(F)c(Nc3ccc(Br)cc3Cl)c(C(=O)NOCCO)cc21 [Selumetinib] (first compound max 1 µM, 7x7, partner max 3 µM)"
readout_name = "Bliss excess"
observed_measurement = 0.0473


====

- Test system: HGC-27 (Gastric Carcinoma)
- assay-method-text: combination Emax (second highest fraction inhibited in the dose matrix, 72 h); higher = more inhibition; extreme values may be limits of the assay
readout-name: combination Emax

[[record]]
molecule = "C[C@@H](c1ccc2nccn2c1)n1nnc2ncc(-c3cnn(C)c3)nc21 [Savolitinib] + Cc1c2c(nn1C)CSCc1cc(n(C)n1)CSc1cc(c3ccccc3c1)OCCCc1c(C(=O)O)n(C)c3c-2c(Cl)ccc13 [AZD5991] (first compound max 1 µM, 7x7, partner max 1 µM)"
readout_name = "combination Emax"
observed_measurement = 0.238

[[record]]
molecule = "CCN(CCO)CCCOc1ccc2c(Nc3cc(CC(=O)Nc4cccc(F)c4)[nH]n3)ncnc2c1 [AZD2811] + O=C(c1cc(Cc2n[nH]c(=O)c3ccccc23)ccc1F)N1CCN(C(=O)C2CC2)CC1 [Olaparib] (first compound max 1 µM, 7x7, partner max 10 µM)"
readout_name = "combination Emax"
observed_measurement = 0.915

[[record]]
molecule = "NC1(C(=O)N[C@@H](CCO)c2ccc(Cl)cc2)CCN(c2ncnc3[nH]ccc23)CC1 [Capivasertib] + CC(=O)c1c(C)c2cnc(Nc3ccc(N4CCNCC4)cn3)nc2n(C2CCCC2)c1=O [Palbociclib] (first compound max 10 µM, 7x7, partner max 10 µM)"
readout_name = "combination Emax"
observed_measurement = 0.874

[[record]]
molecule = "Cc1cc2ncnn2cc1Nc1ncc2c(n1)n(C1CCOCC1)c(=O)n2C [AZD7648] + CN(C)CCCOc1ccc(-c2ccc3ncc4c(c3c2)n(C2CCOCC2)c(=O)n4C)cn1 [AZD0156] (first compound max 10 µM, 7x7, partner max 1 µM)"
readout_name = "combination Emax"
observed_measurement = 0.611


====

Items are presented alongside their recorded Bliss excess.
- Tested on: PWR-1E (Non-Cancerous)
- assay-method-text: Bliss excess, mean over the matrix (fraction); higher = more synergy
readout-name: Bliss excess

[[record]]
compound = "COc1cccc(OCCCN)c1-c1cc(Nc2cnc(C#N)cn2)n[nH]1 [Prexasertib] + C=CCn1c(=O)c2cnc(Nc3ccc(N4CCN(C)CC4)cc3)nc2n1-c1cccc(C(C)(C)O)n1 [AZD1775] (first compound max 1 µM, partner max 1 µM)"
observed_measurement = 0.0706

[[record]]
compound = "CN(C)CCCOc1ccc(-c2ccc3ncc4c(c3c2)n(C2CCOCC2)c(=O)n4C)cn1 [AZD0156] + O=C(c1cc(Cc2n[nH]c(=O)c3ccccc23)ccc1F)N1CCN(C(=O)C2CC2)CC1 [Olaparib] (first compound max 3 µM, partner max 3 µM)"
observed_measurement = 0.286

[[record]]
compound = "CN(C)CCCOc1ccc(-c2ccc3ncc4c(c3c2)n(C2CCOCC2)c(=O)n4C)cn1 [AZD0156] + CCN(CCO)CCCOc1ccc2c(Nc3cc(CC(=O)Nc4cccc(F)c4)[nH]n3)ncnc2c1 [AZD2811] (first compound max 1 µM, 7x7, partner max 1 µM)"
observed_measurement = 0.0831

[[record]]
compound = "COc1nnc2ccc(N3CCC(c4ccc(OCCN5CCN(C)C(=O)[C@H]5C)cc4)CC3)nn12 [AZD5153] + Cn1cnc2c(F)c(Nc3ccc(Br)cc3Cl)c(C(=O)NOCCO)cc21 [Selumetinib] (first compound max 1 µM, 7x7, partner max 10 µM)"
observed_measurement = -0.0044

[[record]]
compound = "NC1(C(=O)N[C@@H](CCO)c2ccc(Cl)cc2)CCN(c2ncnc3[nH]ccc23)CC1 [Capivasertib] + CCN(CCO)CCCOc1ccc2c(Nc3cc(CC(=O)Nc4cccc(F)c4)[nH]n3)ncnc2c1 [AZD2811] (first compound max 10 µM, 7x7, partner max 1 µM)"
observed_measurement = -0.0124

[[record]]
compound = "CN(CCO)CC[C@H](CSc1ccccc1)Nc1ccc(S(=O)(=O)NC(=O)c2ccc(N3CCC([C@@H](O)c4ccccc4-c4ccc(Cl)cc4)CC3)cc2)cc1S(=O)(=O)C(F)(F)F [AZD4320] + Cc1cc2ncnn2cc1Nc1ncc2c(n1)n(C1CCOCC1)c(=O)n2C [AZD7648] (first compound max 1 µM, 7x7, partner max 10 µM)"
observed_measurement = -0.0352

[[record]]
compound = "Cn1cnc2c(F)c(Nc3ccc(Br)cc3Cl)c(C(=O)NOCCO)cc21 [Selumetinib] + C=CCn1c(=O)c2cnc(Nc3ccc(N4CCN(C)CC4)cc3)nc2n1-c1cccc(C(C)(C)O)n1 [AZD1775] (first compound max 10 µM, partner max 1 µM)"
observed_measurement = -0.0663


====

- Test system: AMO-1 (Plasma Cell Myeloma)
- assay-method-text: combination Emax (second highest fraction inhibited in the dose matrix, 72 h); higher = more inhibition; extreme values may be limits of the assay
Items are presented alongside their recorded combination Emax.
readout-name: combination Emax

[[record]]
compound = "C[C@@H](Nc1cc(F)cc(F)c1)c1cc(C(=O)N(C)C)cc2c(=O)cc(N3CCOCC3)oc12 [AZD8186] + C1CN(CCC1(C(=O)N[C@@H](CCO)C2=CC=C(C=C2)Cl)N)C3=NC=NC4=C3C=CN4 [AZD5363] (first compound max 10 µM, 7x7, partner max 10 µM)"
observed_measurement = 0.506

[[record]]
compound = "Cc1nc(Nc2ncc(C(=O)Nc3c(C)cccc3Cl)s2)cc(N2CCN(CCO)CC2)n1 [Dasatinib] + CC(=O)Nc1cccc(-n2c(=O)n(C3CC3)c(=O)c3c(Nc4ccc(I)cc4F)n(C)c(=O)c(C)c32)c1 [Trametinib] (first compound max 2 µM, 7x7, partner max 1 µM)"
observed_measurement = 0.405

[[record]]
compound = "CC1(C)CCC(CN2CCN(c3ccc(C(=O)NS(=O)(=O)c4ccc(NCC5CCOCC5)c([N+](=O)[O-])c4)c(Oc4cnc5[nH]ccc5c4)c3)CC2)=C(c2ccc(Cl)cc2)C1 [Venetoclax] + C[C@@H](Nc1cc(F)cc(F)c1)c1cc(C(=O)N(C)C)cc2c(=O)cc(N3CCOCC3)oc12 [AZD8186] (first compound max 1 µM, 7x7, partner max 3 µM)"
observed_measurement = 0.842


====

- Tested on: ACHN (Kidney Carcinoma)
- assay-method-text: Bliss excess, mean over the matrix (fraction); higher = more synergy
Items are presented alongside their recorded Bliss excess.
readout-name: Bliss excess

[[record]]
compound = "COc1cccc(OCCCN)c1-c1cc(Nc2cnc(C#N)cn2)n[nH]1 [Prexasertib] + Cc1cc2ncnn2cc1Nc1ncc2c(n1)n(C1CCOCC1)c(=O)n2C [AZD7648] (first compound max 1 µM, 7x7, partner max 10 µM)"
target_desc = "ACHN (Kidney Carcinoma)"
observed_measurement = -0.0182

[[record]]
compound = "NC1(C(=O)N[C@@H](CCO)c2ccc(Cl)cc2)CCN(c2ncnc3[nH]ccc23)CC1 [Capivasertib] + COc1nnc2ccc(N3CCC(c4ccc(OCCN5CCN(C)C(=O)[C@H]5C)cc4)CC3)nn12 [AZD5153] (first compound max 10 µM, 7x7, partner max 1 µM)"
target_desc = "ACHN (Kidney Carcinoma)"
observed_measurement = -0.0094

[[record]]
compound = "C[C@@H](Oc1cc(-c2cnn(C3CCNCC3)c2)cnc1N)c1c(Cl)ccc(F)c1Cl [Crizotinib] + Cn1cnc2c(F)c(Nc3ccc(Br)cc3Cl)c(C(=O)NOCCO)cc21 [Selumetinib] (first compound max 10 µM, 7x7, partner max 10 µM)"
target_desc = "ACHN (Kidney Carcinoma)"
observed_measurement = 0.0277

[[record]]
compound = "Cn1cnc2c(F)c(Nc3ccc(Br)cc3Cl)c(C(=O)NOCCO)cc21 [Selumetinib] + CC(C)n1c(=O)n(C)c2cnc3cc(F)c(-c4ccc(OCCCN5CCCCC5)nc4)cc3c21 [AZD1390] (first compound max 10 µM, 7x7, partner max 0.3 µM)"
target_desc = "ACHN (Kidney Carcinoma)"
observed_measurement = 0.0389

